Listed here: items and their measured fraction unbound.
assay: Fraction unbound in rat plasma by equilibrium dialysis method; assay type: ADME, cell-free

{"columns": ["Structure Smiles String", "fraction unbound"],
 "data": [
  ["N#Cc1cnccc1COc1cnc(N2CC3CCC(C2)N3C(=O)OCC(F)(F)F)nc1", 0.065],
  ["N#Cc1cnccc1COc1cnc(N2CCN(C(=O)OCC(F)(F)F)CC2)nc1", 0.051]
]}

* * *

test: Apparent permeability from apical to basolateral side in MDCK cells at 10 uM; type: ADME, cell-based, Canis lupus familiaris; settings: dog

{"columns": ["Structure Smiles String", "Papp A→B at 10 µM, ×10⁻⁶ cm/s"],
 "data": [
  ["N#Cc1cnccc1COc1cnc(N2CCN(C(=O)OCC(F)(F)F)CC2)nc1", 32],
  ["N#Cc1cnccc1COc1cnc(N2CC3CCC(C2)N3C(=O)OCC(F)(F)F)nc1", 25],
  ["C[C@@H]1CN(C(=O)OCC(F)(F)F)CCN1c1ncc(OCc2ccncc2C#N)cn1", 19]
]}
